System: SW-620
assayNotes: Cytotoxicity against human SW620 cells after 72 hrs by MTT assay
Type: functional, cell-based
studyConditions: sw-620
pIC50: −log10 of the molar value.

{"compound": "CN(C)c1ccc(NC(=O)c2cc3ccccc3o2)cc1", "testedSystem": "SW-620", "pIC50": 4.07}

----------
System: SK-BR-3
assayNotes: Cytotoxicity against human SKBR3 cells after 72 hrs by MTT assay
Format: functional, cell-based
studyConditions: SK-BR-3, 72 h
List of IC50 values.

{"compound": "Cl.O=C(Nc1ccc(C2=NCCN2)cc1)c1cc2ccccc2o1", "modifier": "=", "IC50 (µM)": 40.5}
{"compound": "N#Cc1ccc2nc(NC(=O)c3cc4ccccc4o3)[nH]c2c1", "modifier": ">", "IC50 (µM)": 100}
{"compound": "N#Cc1ccc(NC(=O)c2cc3ccccc3o2)cc1", "modifier": "=", "IC50 (µM)": 34.2}
{"compound": "CC(=O)Nc1ccc(NC(=O)c2cc3ccccc3o2)cn1", "modifier": "=", "IC50 (µM)": 59.8}
{"compound": "CN(C)c1ccc(NC(=O)c2cc3ccccc3o2)cc1", "modifier": ">", "IC50 (µM)": 100}
{"compound": "O=C(Nc1nc2ccc([N+](=O)[O-])cc2[nH]1)c1cc2ccccc2o1", "modifier": ">", "IC50 (µM)": 100}
{"compound": "Cl.O=C(Nc1nc2ccc(C3=NCCN3)cc2[nH]1)c1cc2ccccc2o1", "modifier": "=", "IC50 (µM)": 3.83}
{"compound": "N#Cc1ccc2nc(NC(=O)c3cc4ccccc4o3)sc2c1", "modifier": ">", "IC50 (µM)": 100}
{"compound": "CC(=O)Nc1ccc(NC(=O)c2cc3ccccc3o2)cc1", "modifier": ">", "IC50 (µM)": 100}

----------
Recorded pIC50 values for a group of compounds are listed next.
Test system: HeLa
assayNotes: Cytotoxicity against human HeLa cells after 72 hrs by MTT assay
Assay type: functional, cell-based
studyConditions: Homo sapiens, HeLa, 72 h
pIC50: −log10 of the molar value.

{"compound": "N#Cc1ccc2nc(NC(=O)c3cc4ccccc4o3)[nH]c2c1", "modifier": "<", "pIC50": 4.00}
{"compound": "CC(=O)Nc1ccc(NC(=O)c2cc3ccccc3o2)cc1", "modifier": "=", "pIC50": 4.11}
{"compound": "N#Cc1ccc(NC(=O)c2cc3ccccc3o2)nc1", "modifier": "=", "pIC50": 4.62}
{"compound": "N#Cc1ccc(NC(=O)c2cc3ccccc3o2)cc1", "modifier": "=", "pIC50": 5.12}
{"compound": "O=C(Nc1ccc(C2=NCCN2)cn1)c1cc2ccccc2o1", "modifier": "=", "pIC50": 4.14}
{"compound": "CC(=O)Nc1ccc(NC(=O)c2cc3ccccc3o2)cn1", "modifier": "=", "pIC50": 6.05}
{"compound": "Cl.O=C(Nc1nc2ccc(C3=NCCN3)cc2[nH]1)c1cc2ccccc2o1", "modifier": "=", "pIC50": 4.16}
{"compound": "N#Cc1ccc2nc(NC(=O)c3cc4ccccc4o3)sc2c1", "modifier": "=", "pIC50": 4.05}
{"compound": "O=C(Nc1ccc([N+](=O)[O-])cn1)c1cc2ccccc2o1", "modifier": "=", "pIC50": 4.37}
{"compound": "O=C(Nc1ccc([N+](=O)[O-])cc1)c1cc2ccccc2o1", "modifier": "=", "pIC50": 4.94}
{"compound": "CN(C)c1ccc(NC(=O)c2cc3ccccc3o2)cc1", "modifier": "=", "pIC50": 4.31}
